Test system: SNB-19 CNS
Test: NCI-60 one-dose screen, 48 h (100 = growth as untreated, 0 = no growth, -100 = all killed)
Conditions: 10 µM unless noted
This is part of a sample that, as a whole, favours compounds with a hit. Of some 83,000 tested, about 20% had one in any assay.
# growth annotations
OBSERVATION TYPE: growth (%)

| COMPOUND | TARGET ENTITY | OBSERVATION TYPE | READOUT UNITS | RESULT |
| --- | --- | --- | --- | --- |
| Nc1nc(CSc2n[nH]c(N)n2)nc(Nc2ccccc2)n1 | SNB-19 CNS | growth | % | 101 |
| Cc1nc(-n2[nH]c(=O)ccc2=O)sc1N=Nc1ccccc1 | SNB-19 CNS | growth | % | 99.3 |
| Fc1ccccc1-c1cnn2cc(-c3ccccc3)cnc12 | SNB-19 CNS | growth | % | 94.1 |
| CCC(=C(c1ccc(OCCCN(C)C)cc1)c1ccc(OCCCN(C)C)cc1)c1ccc(Cl)cc1 | SNB-19 CNS | growth | % | -88.3 |
| O=C(NNc1ccccc1)c1ncc[nH]1 | SNB-19 CNS | growth | % | 96.5 |
| COC(=O)/C=C1/SC(=Nc2ccc([N+](=O)[O-])cc2)N(CCc2c[nH]c3ccccc23)C1=O | SNB-19 CNS | growth | % | 69.2 |
| COc1cc(Nc2nc3ccccc3cc2C(=O)Nc2ccc(F)c(F)c2)cc(OC)c1OC | SNB-19 CNS | growth | % | 25.3 |
| CC1(C)C(N)=Nc2cc(OCCCCN3Cc4ccccc4C3)c(OCC3CC3)cc21 | SNB-19 CNS | growth | % | 81.9 |
| C=C(C)[C@@H]1CC[C@]2(C(=O)O)CC[C@]3(C)[C@H](CC[C@@H]4[C@@]5(C)CCC(N)C(C)(C)[C@@H]5CC[C@]43C)[C@@H]12 (stereo not given in full) | SNB-19 CNS | growth | % | 28.1 |
| COc1ccc(Nc2nn3c(SCC(=O)c4ccc(C)cc4)nnc3s2)cc1 | SNB-19 CNS | growth | % | 98.8 |
